The measured values listed here are drawn from patent US20110002929A1.

Biological target: T1, human RANK-L, full length, membrane-bound, expressed on HEK293T cells (human, UniProt O14788 1-317)
T1 construct: whole, on cells; also called hRANK-L
T1 sequence (looked up): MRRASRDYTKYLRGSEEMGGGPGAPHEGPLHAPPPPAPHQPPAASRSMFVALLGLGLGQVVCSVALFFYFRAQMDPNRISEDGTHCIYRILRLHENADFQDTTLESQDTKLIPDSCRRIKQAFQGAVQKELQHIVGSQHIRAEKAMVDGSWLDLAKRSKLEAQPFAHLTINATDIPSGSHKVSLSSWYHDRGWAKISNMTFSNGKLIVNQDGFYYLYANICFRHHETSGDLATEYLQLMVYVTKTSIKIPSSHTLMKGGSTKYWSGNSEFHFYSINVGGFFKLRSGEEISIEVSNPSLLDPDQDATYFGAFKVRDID
Assay: FACS, HEK293T with human RANK-L, 3.2 pM Nanobody
OBSERVABLE: PE mean fluorescence

Look over these answered cases.
RANKL9 (VHH, not shown: c-myc and His6 tags) VHH: EVQLVESGGGLVQAGGSLRLTCAASGRTFRSYAMGWFRQAPGKEREFVAAINYSGGSTNYADSVKGRFTISRDNAKNTLYLQMNSLEPEDTAVYYCAAGSGYASLSYYSTERAYTYWGQGTQVTVSS    381
RANKL15 (VHH, not shown: small tags and cut ends) VHH: EVQLVESGGGLVQAGGSLRLSCAAAGGTFRNYVMGWFRQAPGKEREFVTAISTGGSWTGYVDSVKDRFTISRDNTKNTVYLQMASLKPEDTAVYYCAATTPATTYLPRSERQYDYWGQGTQVTVSS    124

P = RANKL6 (VHH, not shown: c-myc and His6 tags) VHH: EVQLVESGGGLMQTGGSLRLSCAASGVTYSYYTASWFRQAPGKEREFVAAISPSGNTYYADSVKGRFTISRDNGKHTMYLQMNSLNPEDTAVYFCAIRATDSIYYASSYRHWGQGTQVTVSS
Q = RANKL18 (VHH, not shown: small tags and cut ends) VHH: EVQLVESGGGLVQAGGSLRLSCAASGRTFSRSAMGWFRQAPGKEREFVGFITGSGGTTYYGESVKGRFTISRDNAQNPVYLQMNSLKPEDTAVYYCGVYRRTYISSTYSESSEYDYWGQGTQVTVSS
R = RANKL13 (VHH, not shown: small tags and cut ends) VHH: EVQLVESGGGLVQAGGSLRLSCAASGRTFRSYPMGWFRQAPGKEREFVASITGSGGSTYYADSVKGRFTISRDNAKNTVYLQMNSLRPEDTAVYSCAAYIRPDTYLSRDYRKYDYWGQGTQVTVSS
Prompt line: List items by PE mean fluorescence in falling order. Give your ranking as a list of the labels in the requested order.
Response line: P, R, Q
